Recorded MIC values for a group of molecules are listed next.
tested on: S. epidermis; test: MIC by broth microdilution (aerobic pathogens), test strain 5; assay type: cell-based; conditions: Staphylococcus epidermidis; test strain 5, S. epidermis; read-out: MIC
Answer format: numeric, µg/mL implied, no suffix.

Below, each entry is followed by its recorded MIC result.
| molecule | system_name | MIC (µg/mL) |
| --- | --- | --- |
| C/C=C1\NC(=O)[C@H]([C@@H](C)O)NC(=O)c2csc(n2)-c2ccc(-c3nc(-c4nc(C(=O)NC5(C(=O)NCCN6C(=O)CSC6=O)CC5)cs4)cs3)nc2-c2csc(n2)[C@H]([C@@H](C)O)NC(=O)c2csc(n2)[C@H](C(C)C)NC(=O)c2csc1n2 [Compound 36] | S. epidermis | 0.5 |
| C/C=C(\NC(=O)c1csc(-c2csc(-c3ccc4c(n3)-c3csc(n3)[C@H]([C@@H](C)O)NC(=O)c3csc(n3)[C@H](C(C)C)NC(=O)c3csc(n3)/C(=C/C)NC(=O)[C@H]([C@@H](C)O)NC(=O)c3csc-4n3)n2)n1)C(=O)NCCN1CCN(C)CC1 [Compound 46] | S. epidermis | 0.25 |
| C/C=C1\NC(=O)[C@H]([C@@H](C)O)NC(=O)c2csc(n2)-c2ccc(-c3nc(-c4nc(C(=O)NC5(C(=O)NCCCN6CCN(C7CC7)CC6)CC5)cs4)cs3)nc2-c2csc(n2)[C@H]([C@@H](C)O)NC(=O)c2csc(n2)[C@H](C(C)C)NC(=O)c2csc1n2 [Compound 15] | S. epidermis | 1 |

Attention now turns to another entry.
IN: Can you look up the measured MIC of C/C=C1\NC(=O)[C@H]([C@@H](C)O)NC(=O)c2csc(n2)-c2ccc(-c3nc(-c4nc(C(=O)NC5(C(=O)NCCCN6CCOCC6)CC5)cs4)cs3)nc2-c2csc(n2)[C@H]([C@@H](C)O)NC(=O)c2csc(n2)[C@H](C(C)C)NC(=O)c2csc1n2 [Compound 7] for me?
OUT: 0.0625
